# study_system: His peptide-tagged soluble cynoADAM9 (cynoADAM9-His) (cynomolgus monkey)
# procedure_details: SPR (BIACORE), antibody captured, cynoADAM9-His in flow
assay_endpoint: kon
Please append the unit to your numeric answer.

Challenge: Please report kon for the following binder: hMAB-A (2D.2) (antibody, V domains shown) VH: EVQLVESGGGLVKPGGSLRLSCAASGFTFSSYWMHWVRQAPGKGLEWVGEIIPIFGHTNYNEKFKSRFTISLDNSKNTLYLQMGSLRAEDTAVYYCARGGYYYYTGKGVLDYWGQGTTVTVSS VL: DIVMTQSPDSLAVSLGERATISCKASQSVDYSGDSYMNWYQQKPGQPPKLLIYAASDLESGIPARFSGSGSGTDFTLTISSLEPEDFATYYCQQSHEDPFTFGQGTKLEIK
Response given: 420000 M⁻¹ s⁻¹

Challenge: Return kon (reported value) for this binder: hMAB-A (2B.2) (antibody, V domains shown) VH: EVQLVESGGGLVKPGGSLRLSCAASGFTFSSYWMHWVRQAPGKGLEWVGEIIPIFGHTNYNEKFKSRFTISLDNSKNTLYLQMGSLRAEDTAVYYCARGGYYYYIGKGVLDYWGQGTTVTVSS VL: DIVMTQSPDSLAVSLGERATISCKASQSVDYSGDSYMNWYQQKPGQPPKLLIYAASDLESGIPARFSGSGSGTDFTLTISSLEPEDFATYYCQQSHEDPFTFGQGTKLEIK
Response given: 340000 M⁻¹ s⁻¹

Challenge: Indicate its recorded kon; the binder in question is hMAB-A (2C.2) (antibody, human IgG1, kappa, V domains shown) VH: EVQLVESGGGLVKPGGSLRLSCAASGFTFSSYWMHWVRQAPGKGLEWVGEIIPIFGHTNYNEKFKSRFTISLDNSKNTLYLQMGSLRAEDTAVYYCARGGYYYYPRFGWLDYWGQGTTVTVSS VL: DIVMTQSPDSLAVSLGERATISCKASQSVDYSGDSYMNWYQQKPGQPPKLLIYAASDLESGIPARFSGSGSGTDFTLTISSLEPEDFATYYCQQSHEDPFTFGQGTKLEIKR
Response given: 350000 M⁻¹ s⁻¹

Challenge: Specify reported kon for the binder shown: hMAB-A (2.2) (antibody, human IgG1, kappa, V domains shown) VH: EVQLVESGGGLVKPGGSLRLSCAASGFTFSSYWMHWVRQAPGKGLEWVGEIIPIFGHTNYNEKFKSRFTISLDNSKNTLYLQMGSLRAEDTAVYYCARGGYYYYGSRDYFDYWGQGTTVTVSS VL: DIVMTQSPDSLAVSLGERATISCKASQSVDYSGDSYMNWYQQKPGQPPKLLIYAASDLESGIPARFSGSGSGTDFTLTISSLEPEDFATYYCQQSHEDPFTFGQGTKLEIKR
Response given: 200000 M⁻¹ s⁻¹
